Hey, just so you know, these numbers are from patent US12509460B2.

Tested on: MDR1-MDCK cell monolayers
condition.description: dog, MDCK-MDR1, 120 min, 5 μM, pH 7.4
So I've got a bunch of compounds here, and I need their MDCK-MDR1: % Recov A-B values.
Just the number please, in %, no unit attached.

Consider the compound CN(c1ccc(-c2cc3cnccc3cc2O)nn1)[C@@H]1C[C@H]2CC[C@@H]([C@@H]1F)N2C [Compound 93A] and give its measured MDCK-MDR1: % Recov A-B.
50

Now consider Cc1nc2cc(-c3ccc(N(C)[C@@H]4C[C@H]5CC[C@@H]([C@@H]4F)N5C)nn3)c(O)cc2c(=O)n1CC(F)(F)F (single isomer, unassigned) [Compound 130A] .
105

Now consider CN(c1ccc(-c2ccc(-n3cnc(C(=O)NC(C)(C)C)c3)cc2O)nn1)[C@@H]1C[C@H]2CC[C@H](N2)[C@@H]1F (single isomer, unassigned) [Compound 124A] .
78

Now consider CN(c1ccc(-c2cc3c(=O)n(C)cnc3cc2O)nn1)[C@@H]1C[C@H]2CC[C@@H]([C@@H]1F)N2C [Compound 102A] .
88

Now consider Cc1nc2cc(-c3ccc(N(C)[C@@H]4C[C@H]5CC[C@@H]([C@@H]4F)N5C)nn3)c(O)cc2c(=O)n1C [Compound 105A] .
105

Now consider CC(=O)Nc1ccc(-c2ccc(N(C)[C@@H]3C[C@H]4CC[C@H](N4)[C@@H]3F)nn2)c(O)c1 (single isomer, unassigned) [Compound 32A] .
90
